Sourced from the supplement of paper PMC9170038

test system: K4 kissing-loop RNA reporter; experiment: apparent KD of K4 kissing-loop reporter; higher = weaker reporter binding; conditions: Eterna round: R107; input ligand: tryptophan 2.4 mM
Quick rule for you: apparent KD of K4 kissing-loop reporter at 200 nM or higher means true (1), lower means false (0).

A selection of reference data follows.
sequence-content | study-system | discrete-label
GCAGUGAUGUUGCACGAGUAGGCUAGAGUACGAGGACCGGUACGGCCGCCACUCGUACGGAAGUCGCUAAUUUAUGGAAUGGUGA [#05 K4 Tryptophan A Same State] | K4 kissing-loop RNA reporter | true (1)
ACGUCCGGAUUAAUCGUGGGCAUGGUCGAUACCAGAUCUUUAAUGAUCCCUUGGCAGCGACAUGAGUGAUGUUCAUGUGCGAUGA [KL-XTheo-A8 #analogue] | K4 kissing-loop RNA reporter | false (0)
UGUCAUUGGUCUGAUACCAGUACCCUUGGCAGCCGAGGAGUGAUGUUCCAAGGAUACCAGUACCCUUGGCAGCAGACCGAUGACU [TheoBS 30 #DoubleAptamer #SwitchBubble] | K4 kissing-loop RNA reporter | true (1)
CCGUAUGUCCACUAUUGAGUGAUGUUCAAGCGAGGACCGGUACGGCCGCCACUCGCGUUACCCACCACGUGUCGCCGCACUUACC [theeternabot_exclusion_KL_Trp_A_42] | K4 kissing-loop RNA reporter | true (1)
CCAAUCUUUUACGAUACCAGUCUAAUAUAUUUAAUCAAAACCCUCGCCGAGUGAUGUUCGGACCCUUGGCAGCGUUUGCGAGAGG [xssgstkmullin] | K4 kissing-loop RNA reporter | true (1)

[ask] Form field: apparent KD of K4 kissing-loop reporter at least 200 nM? Entry: AAGCAGUCACUCGAAGCCAUCGAAGAUGGGCGAGGACCGGUACGGCCGCCACUCGGAGUGAUGUUCCGAAGACUGCAAAAUAAAA
[reply] true (1)

[ask] Form field: apparent KD of K4 kissing-loop reporter at least 200 nM? Entry: CAUACGCAUGGAGGAUAUGAGAUUUUUCAUAUUAUUUUUUAUUCUCAGUGAUGUUGGGAUUUAUAAUCAGAAGGCCAUGUGUAUG [Ex FMN B 11]
[reply] false (0)

[ask] Form field: apparent KD of K4 kissing-loop reporter at least 200 nM? Entry: AAGUCAUAGGCAGGAUAUGCAUAGUAAUAAGGCCAUAUAUACGUAUAGAGUGAUGUUUUGUACCAGGCAGAAGGGCUACAUCAGU [FMN B Excl V7 (+3A)]
[reply] true (1)

----------
system: MS2 coat protein; assay: apparent KD of MS2 coat protein; designed switch direction (-1 OFF switch, 1 ON switch): -1; higher = weaker reporter binding; conditions: Eterna round: R95; input ligand: FMN 200 uM
measure: apparent KD of MS2 coat protein (nM)
The response must be a number in nM with no trailing unit.

The following sequences have reported results that may help.
sequence-content | display-unit | apparent KD of MS2 coat protein
UACCGGCGGACCGAAGCUUUUUGCUUGUCUUAUACUACAACAUGAGGAUCACCCAUGUGGUGGUGGUCCGUUGUAGU [JL ViennaUCT Bitein mod 2] (puzzle: Sensor v3, turn-off variant 2) | nM | 54.4
CAAAAGGUAGGAUAUACGAAAAAAAAGGGUAGAAAAAAAACACAUGAGGAUCACCCAUGUAGAAGGACCAAAAU [salish99_ex2_r3_054] (puzzle: Exclusion 2) | nM | 90.9
GGUUGACAUGAGGAUCACCCAUGUGAGGAUAUGCGAGAGAAAAAAGUGAGGAAGAUAAGCAGAAGGCGCUGUCG [salish99-ex1_r3_013] (puzzle: Exclusion 1) | nM | 118

Turning now to a further sequence:
[ask] # lookup: apparent KD of MS2 coat protein of AGCCAGCUAGGAUAUUGCAGUUGUAACAUGAGGAUCACCCAUGUGAUAGGUGUUUAGCUCCAAGAAGGAGCGCGGC [Eronsoti] (puzzle: Exclusion 5)
[reply] 88.7

----------
Recorded apparent KD of MS2 coat protein values for a group of sequences are listed next.
tested on: MS2 coat protein; assay: apparent KD of MS2 coat protein, switch ON state; designed switch direction (-1 OFF switch, 1 ON switch): 1; higher = weaker reporter binding; details: FMN input: 0 or 200 uM; Eterna round: R93 (includes R88 designs)
Number first, unit second: that is the form wanted.

The following sequences have reported results that may help.
sequence-content | apparent KD of MS2 coat protein
UACAGACAUGAGGAUCACCCAUGUAGAAUUAUGGGAGGAUAUACAAAGACGAGAGUCAGAGUAGAAGGCCUAGGAA [salish99-ss1-164] | 24 nM
AAAGACAUGGUGCAGGAUAUAUUAAUAGUCACAUGAGGAUCACCCAUGUUCAUUUAUAUGAACGAGUAGAAGGGCGAUGAAAAAA [SameState2 Malc#7] | 38.4 nM
AAAAAACAUGAGGAUCACCCAUGUGAGAACAUGGGAGGAUAUACAAGGACGAGAGUCAAAGUAGAAGGCCUAAAAA [Garnet 65] | 155 nM
AAUAUACAUGAGGAUCACCCAUGUUUUAAUAACUGAGGAUAUACGGGUGAAAACAGCAUAGUAGAAGGCAGAAAAA [SameState1 Malc#5] | 42.2 nM

Turning now to a further sequence:
[ask] # get_value(readout= apparent KD of MS2 coat protein, system= MS2 coat protein) for AAUCCAAAUAGUCAGGAUAUCAAAAAUAAGACAUGAGGAUCACCCAUGUACUUAGUAAAAGUAAAUGAGAAGGGACAGGGUGAAA [JR_SS002_Sub403]
[reply] 21.4 nM

----------
Recorded apparent KD of K4 kissing-loop reporter values for a group of sequences are listed next.
tested on: K4 kissing-loop RNA reporter; test: apparent KD of K4 kissing-loop reporter; higher = weaker reporter binding; details: Eterna round: R107; input ligand: tryptophan 2.4 mM
The response must be a number in nM with no trailing unit.

The following sequences have reported results that may help.
sequence-content | apparent KD of K4 kissing-loop reporter (nM)
GCCGUAGAUUGAAGGAGCGGUAUGGGCGUUGGCUGAGUGAUGUUCAGGGAAAGUGGCUUCUACCAGGUAGGUCGCAAUCUACGGC | 137
AAAAUAAACCAGUGAUGUUGGUGUCCAGAUACCAGCGGUAAAAUCCGCCCUUGGCAGCUGUGGACGUACAAAAUAAGUACGUCCU [MatMod 4 - Jieux - Same State - Theophylline A] | 358
UGUCUACCGGGAAGGAGCGUGAAUGAUAAUGGAUAUAGUGAUGUUAUAUAUACGAACGAAUCGCAGGUAGGUCGCCCGGAUCCCU [SSArgB.W] | 481
GACAGCCGGUCGGCCGCCACUUGGAGUGAUGUUCCGCGCGGCGGGCGCCGGAGGGCGUUAAGCCCAAGGACCGGGACCGGUAACG [Celeso] | 104
UGUCAUUGGUCGGCCGCCACUUGAAGGUCAAAGACCAUAGAGUGAUGUUCUAAGACGAAAGUCACAAGGACCGGGACCGAUGACU [TrypBS 3 #SwitchBubble #K4Middle] | 607

[ask] # get_value(readout= apparent KD of K4 kissing-loop reporter, system= K4 kissing-loop RNA reporter) for AAAUCUUUCAGAAGGAGCGUGGAUUAUUCUUAUAUAUUUAUUACGAGUGAUGUUCGUAAUUCACAGGUAGGUCGCUGAUCAAUAA [JR_ExcArginiB_Sub006]
[reply] 89.8

[ask] # get_value(readout= apparent KD of K4 kissing-loop reporter, system= K4 kissing-loop RNA reporter) for AAAUAAAAGGCGGCCGCCACUGAACGCCUCCGCGUGGGUAUAUAGUGAUGUUAUAUGGCCGCCUUCAGGACCGGGCCAAAUAAAA [AstrosSSTryB#1]
[reply] 373

[ask] # get_value(readout= apparent KD of K4 kissing-loop reporter, system= K4 kissing-loop RNA reporter) for UCGAUCGCUAGUGAUGUUGGUGUGCUACAUCGAGGACCGGUACGGCCGCCACUCGAGCCCGAGUAGAAGGGUGGGCUGCUAUGAA [theeternabot_sameState_KL_Trp_A_18]
[reply] 895

[ask] # get_value(readout= apparent KD of K4 kissing-loop reporter, system= K4 kissing-loop RNA reporter) for UGUAUGUGAUUUGAUACCAGACCAGCUGGUGGUUCACGAGUGAUGUUCGUGUUGGUUUGGGUCCCUUGGCAGCAAAUCGCAUACU [KL-SSTheoB12]
[reply] 140

[ask] # get_value(readout= apparent KD of K4 kissing-loop reporter, system= K4 kissing-loop RNA reporter) for UGUUACCAGUGAUGUUGGGAGAUGAAGAGCAAGGAUAUGUGAUAGUACAGAAGGUGCGUCGUCGUGAUUAUCACGCUCUGUGUUA [theeternabot_exclusion_KL_FMN_A_8]
[reply] 111

[ask] # get_value(readout= apparent KD of K4 kissing-loop reporter, system= K4 kissing-loop RNA reporter) for AGUAAUAUCACGGCCGCCACUGAUUAUUGUUUUUAUAGUUAUAAAUCUUGCCAGUGAUGUUGGUUCAGGACCGGGUGAGUUAAUA [JR_SSTryptoB_Sub001]
[reply] 299

[ask] # get_value(readout= apparent KD of K4 kissing-loop reporter, system= K4 kissing-loop RNA reporter) for ACGUCACGUAUACUGGUGGUUUCGAUCGAUACCAGUAGCGAGAGUUACCCUUGGCAGCGACAUGAGUGAUGUUUAUGUAUGAUGA [#13 K4 Theophylline A Exclusion];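 note: bound reporter read as fluorescence of individual clusters on recovered sequencing chips by microscopy, with normalized cluster intensities fitted with a binding model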
[reply] 492
